# Tested on: potential off-target sites
# test-method-notes: Off-target activity detection in limbal stem cells by targeted PCR and NGS
# Format: cell-based, human
# stated-conditions: edited LSCs vs non-edited PBMCs; positive sites of sequenced loci
readout-label: Number of sites positive for off-target activity in LSCs

>>> measured_result("9-HEYJA000005: gRNA targeting B2M; targeting domain UCACGUCAUCCAGCAGAGAA (SEQ ID NO: 116); sgRNA SEQ ID NO: 167 (nucleic acid, listed as RNA, chemistry not given here) guide: UCACGUCAUCCAGCAGAGAAGUUUUAGAGCUAGAAAUAGCAAGUUAAAAUAAGGCUAGUCCGUUAUCAACUUGAAAAAGUGGCACCGAGUCGGUGCUUUU")
"zero"
>>> measured_result("4-CR004366: gRNA targeting B2M (Dharmacon); targeting domain CAGUAAGUCAACUUCAAUGU (SEQ ID NO: 111); sgRNA SEQ ID NO: 162 (nucleic acid, listed as RNA, chemistry not given here) guide: CAGUAAGUCAACUUCAAUGUGUUUUAGAGCUAGAAAUAGCAAGUUAAAAUAAGGCUAGUCCGUUAUCAACUUGAAAAAGUGGCACCGAGUCGGUGCUUUU")
"zero"
